Measured values drawn from patent US20120277143A1 for this set.

Target: T1, human IL4 (human, UniProt P05112 25-153, biotinylated in the SPR and competition assays (sites not given))
T1 construct: Peprotech #200-04, mature protein produced in E. coli; also called hIL4; Interleukin 4
T1 sequence: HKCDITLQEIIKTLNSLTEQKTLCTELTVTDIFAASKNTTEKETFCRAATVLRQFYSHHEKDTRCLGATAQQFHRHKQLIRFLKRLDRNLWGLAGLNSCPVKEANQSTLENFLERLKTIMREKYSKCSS
Assay: IL4RA binding inhibition; assay not re-described (Luminex of Example 2)
Quantity: pIC50
API: returns pIC50 as number; meaning -log10 of concentration in mol/L.

Quick check: pIC50 of C01_6G9_V1_C06_28E5_V1 (designed binder, bispecific IL13/IL4 ankyrin repeat protein with (GGGGS)4 linker; also called bispecific AR protein) DLDKKLLEAARAGQDDEVRILMANGADVNARDSYGSTPLHLAAREGHLEIVEVLLKYGADVNAADFIGDTPLHLAAYRGHLEIVEVLLKYGADVNASDITGETPLHLAAQIGHLEIVEVLLKHGADVNAQDKFGKTAFDISIDNGNEDLAEILQKLGGGGSGGGGSGGGGSGGGGSRSDLGKKLLEAARAGQDDEVRILMANGADVNAADDSGITPLHLAAEDGHLEIVEVLLKAGADVNAQDNLGDTPLHLAAWTGHLEIVEVLLKAGADVNAYDISGITPLHLAAFYGHLEIVEVLLKHGADVNAQDKFGKTAFDISIDNGNEDLAEILQKLN ?
10.62

Quick check: pIC50 of C01_6G9_V1_C06_44C12_V2 (designed binder, bispecific IL13/IL4 ankyrin repeat protein with (GGGGS)4 linker; also called bispecific AR protein) DLDKKLLEAARAGQDDEVRILMANGADVNARDSYGSTPLHLAAREGHLEIVEVLLKYGADVNAADFIGDTPLHLAAYRGHLEIVEVLLKYGADVNASDITGETPLHLAAQIGHLEIVEVLLKHGADVNAQDKFGKTAFDISIDNGNEDLAEILQKLNGGGGSGGGGSGGGGSGGGGSDLGKKLLEAASAGQDDEVHILMANGADVNALDDSGYTPLHLAAEDGHLEIVEVLLKHGADVNAADRLGDTPLHLAAFVGHLEIVEVLLKAGADVNAVDLAGVTPLHVAAFYGHLEIVEVLLKAGADVNAQDKFGKTAFDISIDNGNEDLAEILQKLN ?
10.60

Quick check: pIC50 of C06_44C12_V2_C01_6G9_V1 (designed binder, bispecific IL4/IL13 ankyrin repeat protein with (GGGGS)4 linker; also called bispecific AR protein) DLGKKLLEAASAGQDDEVHILMANGADVNALDDSGYTPLHLAAEDGHLEIVEVLLKHGADVNAADRLGDTPLHLAAFVGHLEIVEVLLKAGADVNAVDLAGVTPLHVAAFYGHLEIVEVLLKAGADVNAQDKFGKTAFDISIDNGNEDLAEILQKLNGGGGSGGGGSGGGGSGGGGSDLDKKLLEAARAGQDDEVRILMANGADVNARDSYGSTPLHLAAREGHLEIVEVLLKYGADVNAADFIGDTPLHLAAYRGHLEIVEVLLKYGADVNASDITGETPLHLAAQIGHLEIVEVLLKHGADVNAQDKFGKTAFDISIDNGNEDLAEILQKLN ?
10.77

Quick check: pIC50 of C06_28E5_V1_C01_6G9_V1 (designed binder, bispecific IL4/IL13 ankyrin repeat protein with (GGGGS)4 linker; also called bispecific AR protein) DLGKKLLEAARAGQDDEVRILMANGADVNAADDSGITPLHLAAEDGHLEIVEVLLKAGADVNAQDNLGDTPLHLAAWTGHLEIVEVLLKAGADVNAYDISGITPLHLAAFYGHLEIVEVLLKHGADVNAQDKFGKTAFDISIDNGNEDLAEILQKLNGGGGSGGGGSGGGGSGGGGSDLDKKLLEAARAGQDDEVRILMANGADVNARDSYGSTPLHLAAREGHLEIVEVLLKYGADVNAADFIGDTPLHLAAYRGHLEIVEVLLKYGADVNASDITGETPLHLAAQIGHLEIVEVLLKHGADVNAQDKFGKTAFDISIDNGNEDLAEILQKLN ?
10.60

Quick check: pIC50 of C01_6G9_V1_C06_53G6_V1 (designed binder, bispecific IL13/IL4 ankyrin repeat protein with (GGGGS)4 linker; also called bispecific AR protein) DLDKKLLEAARAGQDDEVRILMANGADVNARDSYGSTPLHLAAREGHLEIVEVLLKYGADVNAADFIGDTPLHLAAYRGHLEIVEVLLKYGADVNASDITGETPLHLAAQIGHLEIVEVLLKHGADVNAQDKFGKTAFDISIDNGNEDLAEILQKLNGGGGSGGGGSGGGGSGGGGSDLGKKLLEAARAGQDDEVRILMANGADVNATDDWGDTLLHLAATDGHLEIVEVLLKAGADVNANDAIGDTPLHLAALYGHLEIVEVLLKYGADVNATDLHGFTPLHLAAFWGHLEIVEVLLKHGADVNAQDKFGKTAFDISIDNGNEDLAEILQKLN ?
10.82
